Tested on: Acinetobacter calcoaceticus, 8333
Experiment: MIC, agar dilution
Format: cell-based
Conditions: Acinetobacter calcoaceticus, 8333, 18 h, K-10 agar, 10^4 CFU, 37°C, read-out: M.I.C.
Counter-ions that a name gives are not always drawn.
Value kind: MIC

Consider the worked cases shown below.
Prompt line: What value of MIC has been recorded for this entry: C[C@H]1[C@H](NC(=O)OCc2ccccc2)C(=O)N1S(=O)(=O)O [Example 2, potassium salt]
Response line: > 100 µg/mL

Prompt line: May I ask what MIC has been recorded for CCN1CCN(C(=O)N[C@@H](C(=O)N[C@@H]2C(=O)N(S(=O)(=O)O)[C@@H]2C)c2ccccc2)C(=O)C1=O (relative stereo) [Example 22, potassium salt] ?
Response line: 12.5 µg/mL

Now for another entry.
Prompt line: Which MIC is listed for CC1C(NC(=O)Cc2ccccc2)C(=O)N1S(=O)(=O)O (racemic) [Example 4, potassium salt] ?
Response line: > 100 µg/mL
